# Tested on: Efm
# test.method.notes: Whole cell antimicrobial screen (MIC), Efm
# Type: cell-based
# condition.summary: overnight incubation, 2-fold dilutions, read-out: MIC (μg/mL) Efm
result.type: MIC (µg/mL)
Give your result in µg/mL as a bare value.

> print(dat)
                                   compound  result.type  units.of.measure  obs.value
1  CS(=O)(=O)NC(=O)c1ccc(OCc2nc3ccccc3[nH]2)c(OCc2ccc(Cl)cc2Cl)c1 [130,971]          MIC             µg/mL        100

Turning now to a further record.
Inquiry: Checklist item: MIC tested on Efm, entry O=C(NC(CO)C(=O)O)c1ccc(OCc2nc3ccccc3[nH]2)c(OCc2ccc(Cl)cc2Cl)c1 (centres unmarked) [130,970] , value?
Reply text: 100

====

# Test system: Efm
# test.method.notes: Whole cell antimicrobial screen (MIC), Efm
# Format: cell-based
# condition.summary: overnight incubation, 2-fold dilutions, read-out: MIC (μg/mL) Efm
Recorded measurements of MIC, one per entry

Known results for molecules:
> print(dat)
                                   molecule    obs.value
1  O=C(NC(CO)C(=O)O)c1ccc(OCc2ccc(Cl)cc2Cl)c(OCc2nc3ccccc3[nH]2)c1 (stereo not drawn)  > 100 µg/mL
2  O=C(O)Cc1ccc(OCc2nc3ccccc3[nH]2)c(OCc2ccc(Cl)cc2Cl)c1   < 10 µg/mL

Turning now to a further record.
Inquiry: # query: MIC of entry Clc1ccc(COc2ccccc2OCc2nc3ccccc3[nH]2)c(Cl)c1
Reply text: > 100 µg/mL
